- experimental target: Neu5Ac(a2-6)Gal(b1-4)GlcNAc(b1-2)Man(a1-3)[Neu5Ac(a2-6)Gal(b1-4)GlcNAc(b1-2)Man(a1-6)]Man(b1-4)GlcNAc(b1-4)[Fuc(a1-6)]GlcNAc
- run description: glycan array binding signal (z-score within array); higher = stronger binding
- applied conditions: glycan notation: IUPAC condensed, linker removed
The sample as a whole holds a higher share of the strongest signals than the screen did.
Provide the recorded glycan array binding signal (z-score) for the entries that follow.
Answers are plain numbers.

Worked examples, 2 binders total:
[[record]]
binder = "BIp1-His (Cryptococcus neoformans) (protein) MFTKIFVALFAATAVLSAPVESAEKRITHTGRATFYSPSVGIGACGWQNTDEELVVALNAPQYALNADHNCGQSVRITNEQNGNQEIAKVVDLCPGCNDGDLDMSPALFGALNNNDFDQGVFPISWNFLPRDDTSSSN"
measured_result = 0.617

[[record]]
binder = "RBMC1 (Vibrio cholerae) (protein) QQSQRVVTADNLMYLRSGFAIDAIGTTVNNLVGGPVQGTNGGVLRAPIALDQLQSVEVTSGLYNWGGYHIVAIKFTMKDGSSVLLGSTHYASNKKVETYTVPQGKRIKQINVWTGGWLVEGFQFVY"
measured_result = 11.9


Epa2 (Candida glabrata) (protein) MGSSHHHHHHSSGLVPRGSHMASSKDPTSFPMGCSPQVLKTQPGLAVKLYSYGHPVPGCAYNTYQYPDFPRSGYKKERKLADITGVNGRIDIDLKPNDPCRVLSGNLPSNYNYQNTLTYTNFTMILYGYFQPKVTGYHTFNLEADDLLFMNLGAGNAFDCCRAESTLDNFGNYQSYSIWGTDKATADLTVFLVSGIYYPIRLFYVNRDNNAVLDFSFSTEFNKEIIHDFTSYFFSASDEEQCPGNI has a reported glycan array binding signal (z-score) of -0.149
